// data source = paper PMC7932521

Reported CC50 values follow for various compounds
PROTOCOL_NOTES: MRC-5 cytotoxicity
Type: cell-based
MEASUREMENT_SETUP: human, MRC-5 cells; S1 Data

COc1ccc(C(=O)Nc2nc3ccc(C#N)cc3n2CC(F)(F)F)cn1 [Compound 43]
> 64 µM
COCCn1c(NC(=O)c2ccnn2C)nc2ccc(C#N)cc21 [Compound 50, O=C(c1ccnn1C)Nc2nc(ccc(C#N)c3)c3n2CCOC]
> 64 µM
CC(C)(C)Cn1c(NC(=O)c2ccn[nH]2)nc2ccc(C#N)cc21 [Compound 34]
> 64 µM
CCCn1c(NC(=O)Cc2ccc(Cl)cc2)nc2ccc(F)cc21 [Compound 3, CCCn1c(cc(F)cc2)c2nc1NC(=O)Cc3ccc(Cl)cc3]
56.7 µM
CCCn1c(NC(=O)Cc2ccc(F)cc2)nc2cc(F)c(F)cc21 [Compound 6]
> 64 µM
Cn1nccc1C(=O)Nc1nc2ccc(C#N)cc2n1CC(F)F [Compound 47, FC(F)Cn1c(cc(C#N)cc2)c2nc1NC(c3ccnn3C)=O]
12.3 µM

Specify CC50 for CC(C)(C)Cn1c(NC(=O)c2cccnc2)nc2ccc(C#N)cc21 [Compound 41] and stop.
> 64 µM

Output CC50 of O=C(Cc1ccc(F)cc1)Nc1nc2cc(F)ccc2n1CCCN1CCOCC1 [Compound 27]
60.9 µM

###

Listed below: Papp at 5 h, 10 μM values for each entry.
PROTOCOL_NOTES: Parallel artificial membrane permeability assay (PAMPA)
Type: in vitro ADME
MEASUREMENT_SETUP: PAMPA, S1 Data; read-out: PAMPA Pe
Give the value, in units of ×10⁻⁶ cm/s, as a plain number.

Cn1ccc(C(=O)Nc2nc3ccc(C#N)cc3n2CC(F)(F)F)n1
13.9
CN1CCC(n2c(NC(=O)c3ccnn3C)nc3ccc(C#N)cc32)CC1
2.91

API: the following record is the query input.
Please report Papp at 5 h, 10 μM for the following molecule: "CCCn1c(NC(=O)Cc2ccc(F)cc2)nc2c(F)cccc21"
16.2

###

PROTOCOL_NOTES: Mouse liver microsomal stability
Type: in vitro ADME
MEASUREMENT_SETUP: S1 Data
Respond with rule met for MLM CLint values of 400 µL/min/mg and above, rule not met for values below.

COc1ccc(C(=O)Nc2nc3ccc(C#N)cc3n2CC(F)(F)F)cn1
rule not met
CCCn1c(NC(=O)Cc2ccc(Cl)cc2)nc2cc(F)ccc21
rule met
Cn1nccc1C(=O)Nc1nc2cncnc2n1CC(F)(F)F
rule not met
CCCn1c(NC(=O)Cc2ccc(Cl)cc2)nc2cc(C(F)(F)F)ccc21
rule not met
Cn1nccc1C(=O)Nc1nc2ccc(C#N)cc2n1CC(F)F
rule not met

Assess whether reported MLM CLint for "CCCn1c(NC(=O)Cc2ccc(F)cc2)nc2c(F)cccc21" sits at 400 µL/min/mg or higher.
rule met

Tell me whether MLM CLint is at least 400 µL/min/mg here: "Cn1ccc(C(=O)Nc2nc3ccc(C#N)cc3n2CC(F)(F)F)n1"
rule not met

Does MLM CLint meet or surpass 400 µL/min/mg for "CCCn1c(NC(=O)Cc2ccc(Cl)cc2)nc2ccc(F)cc21" ?
rule met

###

PROTOCOL_NOTES: Experimental distribution coefficient (eLogD)
Assay type: physicochemical
MEASUREMENT_SETUP: reverse stationary phase HPLC column (Ascentis RP-Amide), pH 7.4; S1 Data
ENDPOINT_LABEL: chromatographic logD

Would you please look over these solved cases?
CC(C)(C)Cn1c(NC(=O)c2ccccn2)nc2ccc(C#N)cc21
3.93
COc1ccc(C(=O)Nc2nc3ccc(C#N)cc3n2CC(F)(F)F)cn1
4.85
CCCn1c(NC(=O)Cc2ccc(Cl)cc2)nc2ccc(F)cc21
4.31
O=C(Cc1ccc(F)cc1)Nc1nc2cc(F)ccc2n1C1CCNCC1
3.08
O=C(Cc1ccc(F)cc1)Nc1nc2cc(F)ccc2n1CCCN1CCOCC1
3.42
CC(C)(C)Cn1c(NC(=O)c2ccn(CCO)n2)nc2ccc(C#N)cc21
4.03
O=C(Cc1ccc(Cl)cc1)Nc1nc2cc(F)ccc2[nH]1 [Compound 18, Fc1ccc([nH]c(NC(Cc2ccc(Cl)cc2)=O)n3)c3c1]
4.26
Cn1nccc1C(=O)Nc1nc2ccc(C#N)cc2n1C1CCOCC1
2.32
CCCn1c(NC(=O)Cc2ccc(F)cc2)nc2ccc(C#N)cc21
3.6
N#Cc1ccc2nc(NC(=O)Cc3ccc(F)cc3F)n(CC(F)(F)F)c2c1
3.85

Okay, now this compound:
Determine its reported chromatographic logD: "CCn1c(NC(=O)Cc2ccc(F)cc2)nc2ccc(F)cc21"
3.59
